# Test system: SNB-19 CNS
# EXPERIMENTAL PROTOCOL: NCI tumour cell line growth inhibition, 48 h; in the data active means GI50 below about 0.43 µM; inactive means the rest
Select the matching outcome among 1 for active, 0 for inactive

MOLECULE	ANSWER LABEL
CC(C)(C)C(=O)OCOP(=O)(NCc1ccccc1)C1CCCN(O)C1=O (stereo not drawn)	0

What classification did CC(=O)O[C@@H]1C2CCC3C(CC[C@@]4(C)C3CC[C@@H]4C(C)N(C)C)[C@@]2(C)CC[C@@H]1NC(=O)C=C(C)C (stereo partly drawn) end up with in this test?
0

Same again, this time with `CCOC(=O)C1=CCCC[C@H]1S(=O)(=O)Nc1ccc(F)cc1Cl`
0

Repeat for the following molecule: `COc1c/c(=C2\C=c3ccccc3=N2)[nH]/c1=C\c1[nH]c(C)cc1C`
0

Next molecule up: `NS(=O)(=O)OC[C@H]1C[C@@H](Nc2ccnc3cc(-c4cccc(SC(F)(F)F)c4)nn23)[C@H](O)[C@@H]1O`
1

Item: `Nc1nc(/C=C\c2ccc([N+](=O)[O-])s2)nc(N2CCN(c3ccccc3)CC2)n1`
0

Would you mind doing `COc1ccc(C2(Cl)c3ccccc3N(c3ccccc3)c3ccccc32)cc1` as well?
0

`Cc1cc2nc(NCCN)n(Cc3ccc(F)c(Cl)c3)c2cc1C` , same question.
0
